# Lookup of reported % cells binding to HA keyed by entry
biological target: H18 (Influenza A virus); assay: FACS, HA on mammalian cells; 2nd only 5.5
Write down the numeric answer in % and omit the unit.

Known % cells binding to HA results, listed for orientation:
FHF11v3 (antibody, V domains shown) VH: QVQLQQSGPGLVKPSQTLSVTCGISGDSVSSYSAAWNWIRQSPSRGLEWLGRTYYRSKWYNDYAVSVKSRITINPDTSKNQFSLQLISVTPEDTAVYYCARVGAMTFGLLTGGMDVWGQGTTVTVSS VL: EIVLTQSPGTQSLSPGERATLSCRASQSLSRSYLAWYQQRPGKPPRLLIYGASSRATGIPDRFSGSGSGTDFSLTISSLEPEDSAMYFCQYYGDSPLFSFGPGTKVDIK    79
FHF11v6 (antibody, V domains shown) VH: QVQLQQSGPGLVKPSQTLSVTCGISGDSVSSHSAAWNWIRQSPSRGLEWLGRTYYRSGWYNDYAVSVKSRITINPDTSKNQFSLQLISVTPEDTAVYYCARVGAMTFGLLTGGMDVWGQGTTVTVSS VL: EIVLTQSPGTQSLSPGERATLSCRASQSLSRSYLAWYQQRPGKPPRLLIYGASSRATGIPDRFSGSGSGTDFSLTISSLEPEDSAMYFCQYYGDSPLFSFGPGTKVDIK    79
FHF11v9 (antibody, V domains shown) VH: QVQLQQSGPGLVKPSQTLSVTCGISGDSVSSYSAAWNWIRQSPSRGLEWLGRTYYRSGWYNDYAVSVKSRITINPDTSKNQFSLQLISVTPEDTAVYYCARVGAMTFGLLTGGMDVWGQGTTVTVSS VL: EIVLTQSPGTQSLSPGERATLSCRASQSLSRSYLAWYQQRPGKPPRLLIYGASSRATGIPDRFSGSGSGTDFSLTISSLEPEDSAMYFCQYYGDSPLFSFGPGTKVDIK    78

We next turn to a different binder, shown below.
Q: Given FHF11 (antibody, V domains shown) VH: QVQLQQSGPGLVKPSQTLSVTCGISGDSVSSHSAAWNWIRQSPSRGLEWLGRTYYRSKWYNDYAVSVKSRITINPDTSKNQFSLQLISVTPEDTAVYYCARVGAMTFGLLTGGMDVWGQGTTVTVSS VL: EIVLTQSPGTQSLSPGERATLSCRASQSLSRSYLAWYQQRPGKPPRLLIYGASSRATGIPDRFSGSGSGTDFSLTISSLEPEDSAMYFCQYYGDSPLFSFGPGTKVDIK , respond with its % cells binding to HA.
Ans: 80

Data provenance is patent US20240317841A1.
